- target.system: thromboxane synthetase (Rattus norvegicus)
- Construct: The platelets were isolated by centrifuging the PRP for 10 minutes; endogenous in cells; host or cells: washed platelets from arterial blood of Okamoto-Aoki spontaneously hypertensive rats (rats from Taconic Farms)
- assay.text: Inhibition of thromboxane (TXB2) formation in washed rat platelets, TXB2 by direct radioimmunoassay
- Format: cell-based, Okamoto-Aoki spontaneously hypertensive rats (SHR)
- condition: 10 min; Dose 10^-4 (unit inferred); SHR platelet suspension, 10 minutes at 37° C.
assay.metric: inhibition at 100 µM (%)

A: CC(CCNC(=O)c1ccc(Cl)cc1)n1ccnc1 (stereo not shown)
B: O=C(NCCn1ccnc1)c1ccc(Cl)c(Cl)c1
q: Of A and B , which one carries the higher reported inhibition at 100 µM? Reply with the label of the item you choose.
a: A

* * *

- target.system: thromboxane synthetase (Rattus norvegicus, UniProt P49430)
- Construct: The platelets were isolated by centrifuging the PRP for 10 minutes; endogenous in cells; host or cells: washed platelets from arterial blood of Okamoto-Aoki spontaneously hypertensive rats (rats from Taconic Farms)
- Sequence (P49430 1-533): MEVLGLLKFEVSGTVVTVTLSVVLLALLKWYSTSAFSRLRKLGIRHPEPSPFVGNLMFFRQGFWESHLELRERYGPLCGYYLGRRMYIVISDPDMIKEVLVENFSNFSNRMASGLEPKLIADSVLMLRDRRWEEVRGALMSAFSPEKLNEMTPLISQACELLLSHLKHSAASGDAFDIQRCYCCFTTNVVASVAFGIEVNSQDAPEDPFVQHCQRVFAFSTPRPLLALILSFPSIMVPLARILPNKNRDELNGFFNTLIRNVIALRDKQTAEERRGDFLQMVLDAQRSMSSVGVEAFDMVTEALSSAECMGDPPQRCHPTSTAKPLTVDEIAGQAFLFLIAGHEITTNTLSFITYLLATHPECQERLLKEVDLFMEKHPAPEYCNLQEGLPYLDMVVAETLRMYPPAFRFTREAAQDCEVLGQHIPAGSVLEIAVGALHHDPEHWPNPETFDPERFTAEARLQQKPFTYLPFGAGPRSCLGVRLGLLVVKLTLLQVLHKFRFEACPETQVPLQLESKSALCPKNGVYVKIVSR
- assay.text: Inhibition of thromboxane (TXB2) formation in washed rat platelets, TXB2 by direct radioimmunoassay
- Format: cell-based, Okamoto-Aoki spontaneously hypertensive rats (SHR)
- condition: 10 min; Dose 10^-4 (unit inferred); SHR platelet suspension, 10 minutes at 37° C.
assay.metric: inhibition at 100 µM (%)

>>> df
                                    compound          assay_metric  measured
 0           Cc1cn(CCCNC(=O)c2ccc(Br)cc2)cn1  inhibition at 100 µM        80
 1           O=C(NCCCCn1ccnc1)c1cccc2ccccc12  inhibition at 100 µM        95
 2   O=C(NCCCn1cnc(-c2ccccc2)c1)c1ccc(Br)cc1  inhibition at 100 µM        66
 3   O=C(NCCCn1cnc(-c2ccccc2)c1)c1ccc(Cl)cc1  inhibition at 100 µM        69
 4     Cc1cn(CCCNC(=O)c2ccc(C(F)(F)F)cc2)cn1  inhibition at 100 µM        92
 5            O=C(NCCCn1ccnc1)c1ccc2ccccc2c1  inhibition at 100 µM        97
 6            Cc1cn(CCCNC(=O)c2ccc(I)cc2)cn1  inhibition at 100 µM        99
 7               CCNc1ccccc1C(=O)NCCCn1ccnc1  inhibition at 100 µM        86
 8           Cc1cn(CCCNC(=O)c2cccc(Cl)c2)cn1  inhibition at 100 µM        84
 9                O=C(NCCCn1ccnc1)c1ccccc1Cl  inhibition at 100 µM      99.7
10       O=C(NCCCn1ccnc1)C(c1ccccc1)c1ccccc1  inhibition at 100 µM        84
11  CC(CCNC(=O)c1cccc(Cl)c1)n1ccnc1 (centres unmarked)  inhibition at 100 µM        93
12             N#Cc1ccc(C(=O)NCCCn2ccnc2)cc1  inhibition at 100 µM      90.7
13                 O=C(NCCCn1ccnc1)c1ccccc1F  inhibition at 100 µM      83.9
14          O=C(NCCCn1ccnc1)c1ccc(Cl)c(Cl)c1  inhibition at 100 µM      92.7
15  CC(CCNC(=O)c1ccc(Br)cc1)n1ccnc1 (centres unmarked)  inhibition at 100 µM        91
16       Cc1cn(CCCNC(=O)c2ccc(Cl)c(Cl)c2)cn1  inhibition at 100 µM        90
17              O=C(NCCCn1ccnc1)c1ccc(Cl)cc1  inhibition at 100 µM        95
18          CC(=O)c1ccc(C(=O)NCCCn2ccnc2)cc1  inhibition at 100 µM      89.5
19        COc1cc(C(=O)NCCCn2ccnc2)cc(OC)c1OC  inhibition at 100 µM       101
20          O=C(COc1cccc(Cl)c1Cl)NCCCn1ccnc1  inhibition at 100 µM       100
21                O=C(COc1ccccc1)NCCCn1ccnc1  inhibition at 100 µM      86.2
22              CSc1ccc(C(=O)NCCCn2ccnc2)cc1  inhibition at 100 µM       102
23               O=C(NCCCn1ccnc1)c1ccc(F)cc1  inhibition at 100 µM      87.1
24              O=C(NCCCn1ccnc1)c1ccc(Br)cc1  inhibition at 100 µM        85
25       O=C(NCCCCn1ccnc1)c1ccc(C(F)(F)F)cc1  inhibition at 100 µM        97
26      CS(=O)(=O)c1ccc(C(=O)NCCCn2ccnc2)cc1  inhibition at 100 µM      80.1
27  O=C(NCCCn1ccnc1)c1ccccc1 [N-[3-(1H-Imidazol-1-yl)propyl]benzamide]  inhibition at 100 µM      96.3
28           Cc1cn(CCCNC(=O)c2ccc(Cl)cc2)cn1  inhibition at 100 µM        93
29               O=C(NCCCn1ccnc1)c1cccc(F)c1  inhibition at 100 µM      95.8
30               Cc1ccc(C(=O)NCCCn2ccnc2)cc1  inhibition at 100 µM      83.2
31  CC(CCNC(=O)c1ccc(Cl)c(Cl)c1)n1ccnc1 (centres unmarked)  inhibition at 100 µM        86
32               O=C(NCCCn1ccnc1)c1ccc(I)cc1  inhibition at 100 µM      96.7
33            O=C1c2ccccc2C(=O)N1CCCCn1ccnc1  inhibition at 100 µM        99
34        O=C(NCCCn1ccnc1)c1cccc(C(F)(F)F)c1  inhibition at 100 µM        84

Hey, just so you know, these numbers are from patent US4568687A.
